Below, each entry is listed alongside its reported pKd.
# assay-system: GDP-bound KRAS wild-type protein (Homo sapiens)
# Sequence (P01116 whole entry): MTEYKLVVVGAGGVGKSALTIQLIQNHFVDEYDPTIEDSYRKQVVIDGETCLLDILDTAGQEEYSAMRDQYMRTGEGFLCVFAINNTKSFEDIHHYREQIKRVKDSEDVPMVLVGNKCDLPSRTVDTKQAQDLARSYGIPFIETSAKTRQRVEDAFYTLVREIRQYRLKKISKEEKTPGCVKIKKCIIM
# protocol-description: Binding to KRAS by surface plasmon resonance (SPR), Single Cycle Kinetics
# measurement-conditions: SPR Single Cycle Kinetics, GDP-bound KRAS wild-type protein, 1:1 binding model; read-out: KRAS KD
pKd: −log10 of the molar value. *1 amine or outer side, *2 acyl side, *3 side chain or, on linkers, in order; H or OH if unused. Where a SMILES comes first, the peptide text is derived from it. Bridges are numbered along the chain shown (N, C = ends). [ ]: non-standard residue; d: D form. The star is where a group is joined. hPhe(3,5-F2-4-CF3) = N[C@@H](CCc1cc(F)c(C(F)(F)F)c(F)c1)C(=O)O; hPhe(3-Cl-4-CF3) = N[C@@H](CCc1ccc(C(F)(F)F)c(Cl)c1)C(=O)O; NPrPhe(4-CF3) = CCCN[C@@H](Cc1ccc(C(F)(F)F)cc1)C(=O)O; X43 = CCCN([C@@H](Cc1ccccc1)C(=O)[*:2])[*:1]; NMeGly(cPent) = CN[C@H](C(=O)O)C1CCCC1; αMeI = CC[C@H](C)[C@](C)(N)C(=O)O; Hyp = O=C(O)[C@@H]1C[C@@H](O)CN1; NMeD = CN[C@@H](CC(=O)O)C(=O)O; NMeL = CN[C@@H](CC(C)C)C(=O)O; Morpholide = C1CN(*)CCO1; NMeA = CN[C@@H](C)C(=O)O; Ac5c = NC1(C(=O)O)CCCC1; Aze = O=C(O)[C@@H]1CCN1; Ac4c = NC1(C(=O)O)CCC1; NEtG = CCNCC(=O)O; Sar = CNCC(=O)O
metric-name: pKd

# molecule, assay-system, number
data = [
    ("CC[C@H](C)[C@@H]1NC(=O)[C@H](CC(C)C)N(C)C(=O)C[C@@H](C(=O)N2CCOCC2)N(C)C(=O)[C@H](C2CCCC2)N(C)C(=O)C2(CCCC2)NC(=O)[C@@H]2CCCN2C(=O)[C@H](CCc2cc(F)c(C(F)(F)F)c(F)c2)NC(=O)CN(C)C(=O)[C@H](Cc2ccc(C(F)(F)F)cc2)N2CCCC[C@@H](C2=O)N(C)C(=O)CN(CC)C1=O", "GDP-bound KRAS wild-type protein (Homo sapiens)", 9.62),
    ("CCCN1C(=O)[C@@H]2CCN2C(=O)[C@H](C)N(C)C(=O)[C@H]([C@@H](C)CC)NC(=O)[C@H](CC(C)C)N(C)C(=O)C[C@@H](C(=O)N2CCOCC2)N(C)C(=O)[C@H](C2CCCC2)N(C)C(=O)C2(CCCC2)NC(=O)[C@@H]2CCCN2C(=O)[C@H](CCc2ccc(C(F)(F)F)c(Cl)c2)NC(=O)CN(C)C(=O)[C@@H]1Cc1ccccc1 [PP0216] ([NMeL]I[NMeA][Aze][X43][Sar][hPhe(3-Cl-4-CF3)]P[Ac5c][NMeGly(cPent)][NMeD]-Morpholide; lactam N-11)", "GDP-bound KRAS wild-type protein (Homo sapiens)", 9.55),
    ("CCCN1C(=O)CN(C)C(=O)CN(CC)C(=O)[C@H]([C@@H](C)CC)NC(=O)[C@H](CC(C)C)N(C)C(=O)C[C@@H](C(=O)N2CCOCC2)N(C)C(=O)[C@H](C2CCCC2)N(C)C(=O)C2(CCC2)NC(=O)[C@@H]2C[C@@H](OCC)CN2C(=O)[C@H](CCc2ccc(C(F)(F)F)c(Cl)c2)NC(=O)CN(C)C(=O)[C@@H]1Cc1ccc(C(F)(F)F)cc1 [PP0401] ([NMeL]I[NEtG][Sar][NPrPhe(4-CF3)][Sar][hPhe(3-Cl-4-CF3)][Hyp](Et)[Ac4c][NMeGly(cPent)][NMeD]-Morpholide; lactam N-11)", "GDP-bound KRAS wild-type protein (Homo sapiens)", 9.82),
    ("CCCN1C(=O)CN(C)C(=O)CN(C)C(=O)[C@H]([C@@H](C)CC)NC(=O)[C@H](CC(C)C)N(C)C(=O)C[C@@H](C(=O)N(C)C)N(C)C(=O)[C@H](C2CCCC2)N(C)C(=O)[C@](C)([C@@H](C)CC)NC(=O)[C@@H]2CCCN2C(=O)[C@H](CCc2cc(F)c(C(F)(F)F)c(F)c2)NC(=O)CN(C)C(=O)[C@@H]1Cc1ccc(C(F)(F)F)cc1 [PP0736] ([NMeL]I[Sar][Sar][NPrPhe(4-CF3)][Sar][hPhe(3,5-F2-4-CF3)]P[αMeI][NMeGly(cPent)][NMeD]-NMe2; lactam N-11)", "GDP-bound KRAS wild-type protein (Homo sapiens)", 8.74),
]
